// provenance: paper PMC5384254

Quick reference: pIC50 of the listed items.
# assayed.target: M3 receptor (Homo sapiens)
# Sequence (P20309 whole entry): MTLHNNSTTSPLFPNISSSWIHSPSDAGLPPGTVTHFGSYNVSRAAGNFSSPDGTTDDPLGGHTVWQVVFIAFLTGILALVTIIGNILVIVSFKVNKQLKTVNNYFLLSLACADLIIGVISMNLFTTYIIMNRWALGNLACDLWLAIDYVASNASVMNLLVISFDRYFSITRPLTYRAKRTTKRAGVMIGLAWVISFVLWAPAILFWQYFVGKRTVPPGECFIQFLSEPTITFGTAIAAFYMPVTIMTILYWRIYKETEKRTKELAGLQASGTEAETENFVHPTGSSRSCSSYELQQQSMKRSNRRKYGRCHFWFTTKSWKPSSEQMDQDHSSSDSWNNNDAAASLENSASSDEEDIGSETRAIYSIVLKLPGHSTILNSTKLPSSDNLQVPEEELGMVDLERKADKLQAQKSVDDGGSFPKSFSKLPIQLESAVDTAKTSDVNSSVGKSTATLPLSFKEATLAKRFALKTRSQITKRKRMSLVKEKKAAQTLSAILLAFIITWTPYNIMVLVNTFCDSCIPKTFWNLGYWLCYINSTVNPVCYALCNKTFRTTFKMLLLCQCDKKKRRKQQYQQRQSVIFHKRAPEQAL
# method: two-step DMR assay, pure compounds, on endogenous M3 receptor in HT-29 cells
# experimental.setup: read-out: IC50 value on M3; HT-29 cells; inhibition of DMR of 16 μM acetylcholine at 30 min post-stimulation after 1 h pretreatment; mean ± s.d., n = 4
pIC50: −log10 of the molar value.
observed.property: pIC50

>>> value_observed("CN1C2CC(OC(=O)C(COC3OC(CO)C(O)C(O)C3O)c3ccccc3)CC1C1OC12 (centres unmarked)")
5.71
>>> value_observed("O=C(OC1CC2CCC(C1)N2)C(COC1OC(CO)C(O)C(O)C1O)c1ccccc1 (centres unmarked)")
5.35
